Readings of % Inhibition for the listed substances
Test system: human SMAD7 mRNA
Test: Antisense inhibition of human SMAD7 mRNA expression in Hep3B cells by 3-10-3 cEt gapmers, 10,000 nM, electroporation (Example 2)
Assay type: cell-based
Conditions: Hep3B cells, 10,000 nM antisense oligonucleotide, electroporation, approximately 24 hours, RT-PCR primer probe set RTS5062, relative to untreated control cells
Strand notation (5' to 3'): a small letter for the sugar, then the base; units joined by * are phosphorothioate-linked, units joined directly phosphodiester-linked; [ ] holds rarer units or linkages, { } end groups; capitals alone tell only the bases. k = constrained ethyl (cEt); [5mC] = 5-methylcytosine; d = 2'-deoxy (DNA)
Give a bare numeral; the unit % is implied.

Query: Consider the substance shown here: 799879 (kT*kG*kG*dA*dA*dA*dA*dG*d[5mC]*dT*d[5mC]*d[5mC]*dT*kT*k[5mC]*kT; antisense) [compound 799879] What is its recorded % Inhibition?
Reply: 3

Query: # iterate: 799999 (kT*kT*kA*dG*dG*dA*dA*d[5mC]*dA*dA*dG*dG*dG*k[5mC]*kA*kA; antisense) [compound 799999]
Reply: 23

Query: Now consider 800013 (kA*kA*kA*dG*dG*dA*dG*dA*dG*dG*dA*d[5mC]*dT*kT*k[5mC]*kA; antisense) [compound 800013] .
Reply: 56

Query: Query 798824 (kG*kA*k[5mC]*dA*d[5mC]*dA*dG*dT*dA*dG*dA*dG*d[5mC]*k[5mC]*kT*k[5mC]; antisense) [compound 798824] next
Reply: 74

Query: And the next one, 798823 (kA*k[5mC]*kA*dG*dT*dA*dG*dA*dG*d[5mC]*d[5mC]*dT*d[5mC]*k[5mC]*k[5mC]*k[5mC]; antisense) [compound 798823] ?
Reply: 74

Query: What would you report for 798889 (k[5mC]*kA*k[5mC]*dA*dA*dA*dG*d[5mC]*dT*dG*dA*dT*d[5mC]*kT*kG*k[5mC]; antisense) [compound 798889] ?
Reply: 0

Query: Follow-up entry: 800029 (k[5mC]*k[5mC]*kT*dG*dA*dA*dT*d[5mC]*dG*dG*dG*d[5mC]*d[5mC]*k[5mC]*kA*k[5mC]; antisense) [compound 800029]
Reply: 0

Query: Entry to check: 790533 (kG*kG*k[5mC]*dT*dA*d[5mC]*d[5mC]*dG*dG*d[5mC]*dT*dG*dT*kT*kG*kA; antisense) [compound 790533]
Reply: 16

Query: Now try 799977 (kG*kG*kA*d[5mC]*dA*dT*d[5mC]*dT*d[5mC]*dA*dA*dA*dG*kG*kT*kT; antisense) [compound 799977] .
Reply: 36

Query: Also 772613 (kA*kT*kT*dG*dA*dG*d[5mC]*dT*dG*dT*d[5mC]*d[5mC]*dG*kA*kG*kG; antisense) [compound 772613] ?
Reply: 7

Query: What about this substance? 799996 (kG*kA*k[5mC]*d[5mC]*d[5mC]*dA*d[5mC]*dG*dG*dT*dT*dA*dA*kA*kT*kG; antisense) [compound 799996]
Reply: 36
